Item-by-item account of Binding affinity (RU)
target: acetylcholine receptor; assay: SPR, receptor immobilised on chip, peptide at 10 uM
Enter the number, and then the unit.

Some solved cases for reference:
KYCIKK [6mer-2-994] has a reported Binding affinity (RU) of 41 RU

KEMWKK [6mer-2-998] has a reported Binding affinity (RU) of 43 RU

RTNARK [6mer-2-959] has a reported Binding affinity (RU) of 35 RU

Further cases:
KTTEKR [6mer-2-916] has a reported Binding affinity (RU) of 22 RU
